assay: Chemical stability in 0.01 N HCl, SIF (pH 6.0) and pH 7.4 phosphate buffer; assay type: physicochemical; conditions: SIF pH 6.0, 37 °C; read-out: SIF pH 6.0 t1/2
Some compounds, each annotated with its measured half-life.
measurement-name: half-life

- O=c1[nH]c(=O)n([C@H]2C[C@H](O)[C@@H](CO)O2)cc1F: > 2 h
- NC(Cc1ccccc1)C(=O)NC(Cc1ccc(O)cc1)C(=O)OCC1OC(n2cc(F)c(=O)[nH]c2=O)CC1O (stereo not drawn): > 2 h
- Nc1ccn(C2OC(COC(=O)C(Cc3ccc(O)cc3)NC(=O)C(N)Cc3ccccc3)C(O)C2(F)F)c(=O)n1 (stereo not drawn): > 2 h

----------
assay: Enzymatic stability in AsPC-1 cell homogenates; format: in vitro ADME; conditions: human, AsPC-1 cell homogenates, pH 7.4; 500 µg/mL protein, 37 °C; read-out: AsPC-1 cell homogenates t1/2
measurement-name: half-life (min)

• Nc1ccn(C2OC(COC(=O)C(Cc3ccc(O)cc3)NC(=O)C(N)Cc3ccccc3)C(O)C2(F)F)c(=O)n1 [5′-L-Phenylalanyl-L-tyrosyl-gemcitabine] = 8.1

----------
assay: Enzymatic stability in Panc-1 cell homogenates; type: in vitro ADME; details: human, Panc-1 cell homogenates, pH 7.4; 500 µg/mL protein, 37 °C; read-out: Panc-1 cell homogenates t1/2
Some molecules, each annotated with its measured half-life.
measurement-name: half-life

• NC(Cc1ccccc1)C(=O)NC(Cc1ccc(O)cc1)C(=O)OCC1OC(n2cc(F)c(=O)[nH]c2=O)CC1O (stereo not drawn) = 40.4 min
• Nc1ccn(C2OC(COC(=O)C(Cc3ccc(O)cc3)NC(=O)C(N)Cc3ccccc3)C(O)C2(F)F)c(=O)n1 (stereo not drawn) = 30.2 min
• O=c1[nH]c(=O)n([C@H]2C[C@H](O)[C@@H](CO)O2)cc1F = 41.7 min

----------
assay: Chemical stability in 0.01 N HCl, SIF (pH 6.0) and pH 7.4 phosphate buffer; type: physicochemical; conditions: pH 7.4 phosphate buffer, 37 °C; read-out: Buffer pH 7.4 t1/2
Some molecules, each annotated with its measured half-life.
measurement-name: half-life

• O=c1[nH]c(=O)n([C@H]2C[C@H](O)[C@@H](CO)O2)cc1F = > 2 h
• NC(Cc1ccccc1)C(=O)NC(Cc1ccc(O)cc1)C(=O)OCC1OC(n2cc(F)c(=O)[nH]c2=O)CC1O (stereo not drawn) = > 2 h
• Nc1ccn(C2OC(COC(=O)C(Cc3ccc(O)cc3)NC(=O)C(N)Cc3ccccc3)C(O)C2(F)F)c(=O)n1 (stereo not drawn) = 0.56 h
